System: microorganisms
Test: Morphology, biofilm and growth disruption by peptides (Table 5)
Type: cell-based
Parameters: key: A: Peptide aggregates; B: Less hyphal formation; Clumps; Diffuse clumps and small polyps; F: Diffuse growth; H: Thin; I: Growth inhibition; Microcolony formation; Rippled; Small polyps; Thick; W: Halo formation on top, microlonies on bottom
Settings: S. epidermidis
parameter-measured: Organism, effect

substance | parameter-measured | result
PF-313 (YITSHKNARAIIKKFERDEILEEVITHYLNRK; Peptide with targeting and/or antimicrobial activity) | Organism, effect | S. epidermidis (C)
PF-294 (DFLVNFLWFKGELNWGKKRYK; Peptide with targeting and/or antimicrobial activity) | Organism, effect | S. epidermidis (C)
PF-186 (DADKNLSLERDRFAWRVAAP; Peptide with targeting and/or antimicrobial activity) | Organism, effect | S. epidermidis (C)

---

Test system: bacteria
Experiment: Binding of targeting peptides to microorganisms (Table 3)
Details: peptide binding in aqueous buffers varied by peptide solubility; preferably 1x PBS
parameter-measured: Target(s) (microorganism bound by the targeting peptide)

substance | result
1T-15 (DVILRVEAQ; Peptide with targeting and/or antimicrobial activity) [Peptide 1T-15] | S. mutans
1T-6 (KFINGVLSQFVLERK; Peptide with targeting and/or antimicrobial activity) [Peptide 1T-6] | S. mutans
1T-122 (GAIPDPVTHRVDWEEDHQTRPSR; Peptide with targeting and/or antimicrobial activity) [Peptide 1T-122] | S. mitis
1T-28 (VSRDEAMEFIDREWTTLQPAGKSHA; Peptide with targeting and/or antimicrobial activity) [Peptide 1T-28] | P. aeruginosa
1T-123 (LVRRNAVAGRSDGLAGAEQLDLVRLQGVL; Peptide with targeting and/or antimicrobial activity) [Peptide 1T-123] | S. gordonii
1T-84 (FRKKRYGLSILLWLNAFTNLVNSIHAFYMTLF; Peptide with targeting and/or antimicrobial activity) [Peptide 1T-84] | S. pneumoniae
1T-32 (VSFLAGWLCLGLAAWRLGNA; Peptide with targeting and/or antimicrobial activity) [Peptide 1T-32] | S. mutans
1T-112 (SDNDGKLILGTSQ; Peptide with targeting and/or antimicrobial activity) [Peptide 1T-112] | S. gordonii
1T-104 (RAVAAHLQGRHHGHQVRRQRHGQR; Peptide with targeting and/or antimicrobial activity) [Peptide 1T-104] | S. mitis
1T-61 (HATLLPAVREAISRQLLPALVPRG; Peptide with targeting and/or antimicrobial activity) [Peptide 1T-61] | P. aeruginosa
1T-58 (CDDLHALERAGKLDALLSA; Peptide with targeting and/or antimicrobial activity) [Peptide 1T-58] | P. aeruginosa
1T-117 (GPGVVGPAPFSRLPAHALNL; Peptide with targeting and/or antimicrobial activity) [Peptide 1T-117] | S. mutans
1T-81 (AIATGLDIVDGKFDGYLWA; Peptide with targeting and/or antimicrobial activity) [Peptide 1T-81] | S. pneumoniae

---

Test system: microorganisms
Assay: Morphology, biofilm and growth disruption by peptides (Table 5)
Assay type: cell-based
Set-up: key: A: Peptide aggregates; B: Less hyphal formation; Clumps; Diffuse clumps and small polyps; F: Diffuse growth; H: Thin; I: Growth inhibition; Microcolony formation; Rippled; Small polyps; Thick; W: Halo formation on top, microlonies on bottom
Settings: E. coli
parameter-measured: Organism, effect

substance | result
PF-401 (YWLSRVTTGHSFAFEKPVPLSLTIK; Peptide with targeting and/or antimicrobial activity) | E. coli (R)
PF-418 (FFLVHFYIRKRKGKVSIFLNYF; Peptide with targeting and/or antimicrobial activity) | E. coli (C)
PF-380 (KKIIPLITLFVVTLVG; Peptide with targeting and/or antimicrobial activity) | E. coli (C)
PF-369 (MSEAVNLLRGARYSQRYAKNQVPYEVIIEK; Peptide with targeting and/or antimicrobial activity) | E. coli (R)

---

Test system: microorganisms
Assay: Morphology, biofilm and growth disruption by peptides (Table 5)
Assay type: cell-based
Design: key: A: Peptide aggregates; B: Less hyphal formation; Clumps; Diffuse clumps and small polyps; F: Diffuse growth; H: Thin; I: Growth inhibition; Microcolony formation; Rippled; Small polyps; Thick; W: Halo formation on top, microlonies on bottom
Details: S. epidermidis

substance | Organism, effect
PF-037 (MTKKRRYDTTEFGLAHSMTAKITLHQALYK; Peptide with targeting and/or antimicrobial activity) | S. epidermidis (D)
HCVIGNVVDIANLLKRRAVYRDIADVIKMR [PF-071] | S. epidermidis (R)
PF-355 (WIAIGLLLYFSLKNQ; Peptide with targeting and/or antimicrobial activity) | S. epidermidis (C)
PF-061 (GYNSYKAVQDVKTHSEEQRVTAKK; Peptide with targeting and/or antimicrobial activity) | S. epidermidis (R)
PF-127 (MLRYLSLFAVGLATGYAWGWIDGLAASLAV; Peptide with targeting and/or antimicrobial activity) | S. epidermidis (M)
LMFFSENMDKRDTLSGKFRYFAGSKVIKLMNWLSENGK [PF-226] | S. epidermidis (C)
PF-139 (ALSKPAIQARTLCRRQDPP; Peptide with targeting and/or antimicrobial activity) | S. epidermidis (M)
PF-403 (LLSTEQLLKYYDGETFDGFQLPSNE; Peptide with targeting and/or antimicrobial activity) | S. epidermidis (M)
PF-296 (GAFGMPSIKTNTICGEKGKFISACDAWLSNLK; Peptide with targeting and/or antimicrobial activity) | S. epidermidis (C)
PF-297 (ISKGIDDIVYVINKILSIGNIFKIIKRK; Peptide with targeting and/or antimicrobial activity) | S. epidermidis (C)
PF-125 (YVVGALVILAVAGLIYSMLRKA; Peptide with targeting and/or antimicrobial activity) | S. epidermidis (D)
PF-401 (YWLSRVTTGHSFAFEKPVPLSLTIK; Peptide with targeting and/or antimicrobial activity) | S. epidermidis (C)
PF-393 (DLVQSILSEFKKSG; Peptide with targeting and/or antimicrobial activity) | S. epidermidis (R)

---

Test system: microorganisms
Experiment: Morphology, biofilm and growth disruption by peptides (Table 5)
Assay type: cell-based
Set-up: key: A: Peptide aggregates; B: Less hyphal formation; Clumps; Diffuse clumps and small polyps; F: Diffuse growth; H: Thin; I: Growth inhibition; Microcolony formation; Rippled; Small polyps; Thick; W: Halo formation on top, microlonies on bottom
Conditions: C. jejuni

substance | Organism, effect
PF-355 (WIAIGLLLYFSLKNQ; Peptide with targeting and/or antimicrobial activity) | C. jejuni (D)
PF-068 (SHLINNFGLSVINPSTPICLNFSPVFNLLTVYGITCN; Peptide with targeting and/or antimicrobial activity) | C. jejuni (D)
PF-008 (chain 1 MIEIGSIAYLNGGSKKYNHILNQENR; chain 2 MIEIGSIAYLNGGSKKYNHILNQENR; Peptide with targeting and/or antimicrobial activity) | C. jejuni (R)
PF-073 (CPSVTMDACALLQKFDFCNNISHFRHFFAIKQPIER; Peptide with targeting and/or antimicrobial activity) | C. jejuni (D)
PF-411 (WVAVAILLNIALQTQLT; Peptide with targeting and/or antimicrobial activity) | C. jejuni (D)
PF-171 (TQVTLCRTW; Peptide with targeting and/or antimicrobial activity) | C. jejuni (R)
PF-061 (GYNSYKAVQDVKTHSEEQRVTAKK; Peptide with targeting and/or antimicrobial activity) | C. jejuni (R)
PF-145 (GIVLTGRAGLVSGACSMALGVGLG; Peptide with targeting and/or antimicrobial activity) | C. jejuni (R)
PF-067 (DLIVKVHICFVVKTASGYCYLNKREAQAAI; Peptide with targeting and/or antimicrobial activity) | C. jejuni (D)
MIHLTKQNTMEALHFIKQFYDMFFILNFNV [PF-040] | C. jejuni (D)
MGIIAGIIKFIKGLIEKFTGK [PF-006] | C. jejuni (D)
AL C SVIKAIEL GIINVHL Q [PF-366] | C. jejuni (D)

---

Test system: microorganisms
Assay: Morphology, biofilm and growth disruption by peptides (Table 5)
Type: cell-based
Design: key: A: Peptide aggregates; B: Less hyphal formation; Clumps; Diffuse clumps and small polyps; F: Diffuse growth; H: Thin; I: Growth inhibition; Microcolony formation; Rippled; Small polyps; Thick; W: Halo formation on top, microlonies on bottom
Conditions: S. epidermidis
parameter-measured: Organism, effect

substance | parameter-measured | result
PF-397 (VEDLMEDLNA; Peptide with targeting and/or antimicrobial activity) | Organism, effect | S. epidermidis (C)
PF-356 (VSIKIGAIVIGMIGLMELLTE; Peptide with targeting and/or antimicrobial activity) | Organism, effect | S. epidermidis (S)
PF-310 (GVALIGTILVPLLSGLFG; Peptide with targeting and/or antimicrobial activity) | Organism, effect | S. epidermidis (C)
PF-027 (HNARKYLEFISQKIDGDKLTKEDSL; Peptide with targeting and/or antimicrobial activity) | Organism, effect | S. epidermidis (D)
PF-074 (RDIHPIYFMTKD; Peptide with targeting and/or antimicrobial activity) | Organism, effect | S. epidermidis (D)
GIVLIGLKLIPLLANVLR [PF-322] | Organism, effect | S. epidermidis (C)
PF-052 (QELINEAVNLLVKSK; Peptide with targeting and/or antimicrobial activity) | Organism, effect | S. epidermidis (S)
PF-410 (FALELIALCRNLFIVYFP; Peptide with targeting and/or antimicrobial activity) | Organism, effect | S. epidermidis (C)

Entry source: patent US9597407B2
